The measured values listed here are drawn from patent US11873290B2.

- Test System: skeletal myofibrils (myosin ATPase activity)
- Assay Info: Skeletal Myofibril ATPase Assay
- Condition Info: PK-LDH coupled, absorbance at 340 nm
- Method: Overview: Myosin ATPase activity is assessed by using a coupled reaction system, in which ADP generated by the myosin ATPase function is coupled to the disappearance of NADH through the pyruvate kinase/lactate dehydrogenase (PK-LDH) system. Myosin ATPase activity produces ADP, which is used as a substrate for PK to produce pyruvate and regenerate ATP. […] The rate of the reaction is monitored through the time-dependent disappearance of NADH using absorbance at 340 nm. […]
pIC50: −log10 of the molar value.
Measured pIC50 accompanies every entry in the list below.

Below are worked cases with known answers.
mol_smiles=O=c1ccc(-c2cnc(OCC3COC3)nc2)nn1Cc1cncc(F)c1 test_system="skeletal myofibrils (myosin ATPase activity)" val="> 5.00"
mol_smiles=O=c1ccc(-c2ccc(OC(F)F)cc2)nn1Cc1nc(C2CC2)cs1 test_system="skeletal myofibrils (myosin ATPase activity)" val="> 5.00"
mol_smiles=O=c1ccc(-c2ccc(OC(F)F)cc2)nn1Cc1nc(-c2ccccc2)no1 test_system="skeletal myofibrils (myosin ATPase activity)" val="> 5.00"
mol_smiles=Cc1ccc(-c2ccc(=O)n(Cc3cc(=O)n4ccccc4n3)n2)cc1 test_system="skeletal myofibrils (myosin ATPase activity)" val="4.00 to 5.00"

Lab note: next compound to report on.
Requested read-out pIC50, target or system skeletal myofibrils (myosin ATPase activity), entry Cc1ncc(Cn2nc(-c3cnc(OCC(F)(F)F)nc3)ccc2=O)cc1F
> 5.00
